The measured values listed here are drawn from patent US20250215006A1.

Please provide measured pIC50 for the entries that follow.
study.target: WRN (Homo sapiens, UniProt Q14191)
Construct: A His-tagged construct of WRN (AA S2-S1235) was produced and used for the ATPase assay; His; made in house; host or cells: Sf9 insect cells (baculovirus, pFastBac1)
Sequence (Q14191 2-1235): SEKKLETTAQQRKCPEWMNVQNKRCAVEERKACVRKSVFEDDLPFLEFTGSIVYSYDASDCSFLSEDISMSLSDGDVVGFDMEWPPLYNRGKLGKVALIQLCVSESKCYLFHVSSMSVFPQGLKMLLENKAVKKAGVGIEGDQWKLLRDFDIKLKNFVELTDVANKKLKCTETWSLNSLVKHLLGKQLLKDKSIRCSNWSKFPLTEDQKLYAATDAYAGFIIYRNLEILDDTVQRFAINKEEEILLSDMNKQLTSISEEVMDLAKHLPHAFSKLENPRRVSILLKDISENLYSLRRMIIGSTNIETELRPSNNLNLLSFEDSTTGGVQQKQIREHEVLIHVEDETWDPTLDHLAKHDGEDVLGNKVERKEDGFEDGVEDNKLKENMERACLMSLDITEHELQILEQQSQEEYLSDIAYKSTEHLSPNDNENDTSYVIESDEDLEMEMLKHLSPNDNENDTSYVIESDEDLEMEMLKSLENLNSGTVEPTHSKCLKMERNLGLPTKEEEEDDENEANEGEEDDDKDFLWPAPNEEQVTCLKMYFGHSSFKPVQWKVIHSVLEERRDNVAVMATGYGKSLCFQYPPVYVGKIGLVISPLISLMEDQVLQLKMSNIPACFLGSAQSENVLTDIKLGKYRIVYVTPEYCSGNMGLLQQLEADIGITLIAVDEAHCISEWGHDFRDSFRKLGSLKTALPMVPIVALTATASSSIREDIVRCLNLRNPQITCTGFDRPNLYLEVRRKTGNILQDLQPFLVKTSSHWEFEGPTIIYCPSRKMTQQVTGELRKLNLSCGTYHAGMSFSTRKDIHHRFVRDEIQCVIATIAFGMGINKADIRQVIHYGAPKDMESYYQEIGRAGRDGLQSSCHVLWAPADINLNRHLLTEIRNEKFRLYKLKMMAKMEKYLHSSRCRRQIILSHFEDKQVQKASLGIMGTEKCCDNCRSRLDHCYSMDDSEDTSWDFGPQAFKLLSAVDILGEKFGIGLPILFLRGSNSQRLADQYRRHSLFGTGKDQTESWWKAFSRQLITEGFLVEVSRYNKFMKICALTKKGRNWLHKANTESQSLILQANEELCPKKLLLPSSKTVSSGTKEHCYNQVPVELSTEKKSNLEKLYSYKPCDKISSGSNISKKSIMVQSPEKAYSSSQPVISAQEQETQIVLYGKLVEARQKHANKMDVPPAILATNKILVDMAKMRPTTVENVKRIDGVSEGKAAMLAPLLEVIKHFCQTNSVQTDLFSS
procedure.summary: WRN Helicase activity assay (fluorescence DNA unwinding)
Format: biochemical
condition.label: 1-hr pre-incubation with enzyme; 100 μM ATP, 25 nM forked dsDNA, 1 nM WRN; geometric mean of at least 2 replicates
pIC50: −log10 of the molar value.

Here are 3 molecules together with their reported answers.
Entry C=CC(=O)Nc1ccccc1-c1c(CC)nc2n(CC(=O)Nc3ccc(F)c(F)c3)c3ccccc3n2c1=O has what pIC50?
> 7.00

Entry C=CS(=O)(=O)Nc1ccccc1-c1c(CC)c(C#N)c2n(CC(=O)Nc3ccc(C(F)(F)F)cc3)c3ccccc3n2c1=O has what pIC50?
6.30 to 7.00

Entry C=CC(=O)Nc1ccccc1-c1c(CC)nc2n(CC(=O)Nc3ccc(F)cc3)c3cc(C)c(C)cc3n2c1=O has what pIC50?
4.70 to 5.30

Report pIC50 for every entry below.
1. C=CC(=O)Nc1ccccc1-c1c(CC)nc2n(CC(=O)Nc3ccc(F)c(F)c3)c3cc(OC)ccc3n2c1=O
2. C=CC(=O)Nc1ccccc1-c1c(CC)nc2n(CC(=O)Nc3ccc(C(F)(F)F)cc3)c3c(OC)cccc3n2c1=O
3. C=CC(=O)Nc1ccccc1-c1c(CC)nc2n(CC(=O)Nc3ccc(C(F)(F)F)cc3)c3ncccc3n2c1=O
4. C=CC(=O)Nc1ccccc1-c1c(CC)nc2n(CC(=O)NC3CCCCC3)c3ccccc3n2c1=O
5. C=CC(=O)Nc1ccccc1-c1c(CC)nc2n(CC(=O)Nc3ccccc3)c3ccccc3n2c1=O
6. C=CC(=O)Nc1ccccc1-c1c(CC)nc2n(CC(=O)Nc3ccc(C(F)(F)F)cc3)c3ccccc3n2c1=O
7. C=CC(=O)Nc1ccccc1-c1c(CC)cc2n(CC(=O)Nc3ccc(C(F)(F)F)cc3)c3ccccc3n2c1=O

1. 6.30 to 7.00
2. > 7.00
3. 6.30 to 7.00
4. 5.30 to 6.00
5. > 7.00
6. > 7.00
7. > 7.00

Report pIC50 for every entry below.
1. C=CC(=O)Nc1ccc(C(=O)NCCO)cc1-c1c(CC)nc2n(CC(=O)Nc3ccc(F)cc3)c3ccccc3n2c1=O
2. C=CC(=O)Nc1ccccc1-c1c(CC)nc2n(CC(=O)Nc3cccc(C(F)(F)F)c3)c3ccccc3n2c1=O
3. C=CC(=O)Nc1ccccc1-c1c(CC)nc2n(CC(=O)Nc3ccc(F)cc3)c3ccccc3n2c1=O

["6.30 to 7.00", "6.30 to 7.00", "> 7.00"]

Report pIC50 for every entry below.
1. C=CC(=O)Nc1ccc(C(=O)NCCOC)cc1-c1c(CC)nc2n(CC(=O)Nc3ccc(F)cc3)c3ccccc3n2c1=O
2. C=CC(=O)Nc1ccc(C(=O)N2CC3CC3(O)C2)cc1-c1c(CC)nc2n(CC(=O)Nc3ccc(F)cc3)c3ccccc3n2c1=O (stereo not shown)
3. C=CS(=O)(=O)Nc1ccccc1-c1c(CC)nc2n(CC(=O)Nc3ccc(C(F)(F)F)cc3)c3ccccc3n2c1=O
4. C=CC(=O)Nc1ccccc1-c1c(CC)nc2n(CC(=O)Nc3ccc(C(F)(F)F)cc3)c3c(n2c1=O)CCCC3
5. C=CC(=O)Nc1cc(C#N)ccc1-c1c(CC)nc2n(CC(=O)Nc3ccc(C(F)(F)F)cc3)c3ccccc3n2c1=O
6. C=CC(=O)Nc1ccccc1-c1c(CC)nc2n(CC(=O)Nc3ccc(F)cc3Cl)c3ccccc3n2c1=O

["6.30 to 7.00", "6.30 to 7.00", "> 7.00", "> 7.00", "> 7.00", "> 7.00"]
